- Tested on: Escherichia coli TOP10
- procedureDetails: shrunken log2 fold change of peptide-encoding DNA abundance (4.5 h post-induction vs induction); higher = less antimicrobial activity (less host growth inhibition)
- testContext: time post-induction: 4.5 h; library: site-saturation at positions 5, 18, 19, 20
Using shrunken log2 fold change as the sorting value, the categories are bucket 1 (below -0.1), bucket 2 (-0.1 to below 0.09), bucket 3 (0.09 or more)

>>> label("RRIRERPPRLPRPRPRPDRTPRP")
"bucket 2"
>>> label("RRIRIRPPRLPRPRPRPDVRPRP")
"bucket 2"
>>> label("RRIRLRPPRLPRPRPRPVVFPRP")
"bucket 1"
>>> label("RRIRPRPPRLPRPRPRPIACPRP")
"bucket 2"
>>> label("RRIRGRPPRLPRPRPRPIQKPRP")
"bucket 2"
>>> label("RRIRARPPRLPRPRPRPVLRPRP")
"bucket 3"
>>> label("RRIRPRPPRLPRPRPRPCEDPRP")
"bucket 1"
>>> label("RRIRLRPPRLPRPRPRPQRKPRP")
"bucket 3"
>>> label("RRIRSRPPRLPRPRPRPTECPRP")
"bucket 2"
>>> label("RRIRTRPPRLPRPRPRPGQRPRP")
"bucket 3"
>>> label("RRIRHRPPRLPRPRPRPDKRPRP")
"bucket 2"
>>> label("RRIRCRPPRLPRPRPRPHWTPRP")
"bucket 1"
>>> label("RRIRDRPPRLPRPRPRPACYPRP")
"bucket 1"
>>> label("RRIRKRPPRLPRPRPRPVFSPRP")
"bucket 3"
>>> label("RRIRFRPPRLPRPRPRPLGIPRP")
"bucket 1"
>>> label("RRIRERPPRLPRPRPRPEMLPRP")
"bucket 3"
>>> label("RRIRERPPRLPRPRPRPGPGPRP")
"bucket 3"
>>> label("RRIRGRPPRLPRPRPRPQYFPRP")
"bucket 1"
>>> label("RRIRIRPPRLPRPRPRPKAWPRP")
"bucket 2"
>>> label("RRIRLRPPRLPRPRPRPCMTPRP")
"bucket 3"
>>> label("RRIRMRPPRLPRPRPRPECQPRP")
"bucket 3"
>>> label("RRIRHRPPRLPRPRPRPPTQPRP")
"bucket 3"
>>> label("RRIRDRPPRLPRPRPRPTPEPRP")
"bucket 3"
>>> label("RRIRDRPPRLPRPRPRPFIHPRP")
"bucket 1"
>>> label("RRIRMRPPRLPRPRPRPMSMPRP")
"bucket 3"
>>> label("RRIRGRPPRLPRPRPRPYWCPRP")
"bucket 2"
>>> label("RRIRQRPPRLPRPRPRPVSFPRP")
"bucket 1"
>>> label("RRIRYRPPRLPRPRPRPNKLPRP")
"bucket 1"
>>> label("RRIRLRPPRLPRPRPRPTHKPRP")
"bucket 3"
>>> label("RRIRGRPPRLPRPRPRPPYFPRP")
"bucket 2"
>>> label("RRIRCRPPRLPRPRPRPDARPRP")
"bucket 2"
>>> label("RRIRTRPPRLPRPRPRPLKHPRP")
"bucket 1"
>>> label("RRIRERPPRLPRPRPRPGPNPRP")
"bucket 1"
>>> label("RRIRPRPPRLPRPRPRPQKLPRP")
"bucket 2"
>>> label("RRIRNRPPRLPRPRPRPFHLPRP")
"bucket 1"
>>> label("RRIRIRPPRLPRPRPRPILRPRP")
"bucket 1"
>>> label("RRIRWRPPRLPRPRPRPCEWPRP")
"bucket 2"
>>> label("RRIRNRPPRLPRPRPRPNKNPRP")
"bucket 1"
>>> label("RRIRERPPRLPRPRPRPVWKPRP")
"bucket 2"

---

- Tested on: Escherichia coli TOP10
- procedureDetails: shrunken log2 fold change of peptide-encoding DNA abundance (4.5 h post-induction vs induction); higher = less antimicrobial activity (less host growth inhibition)
- testContext: time post-induction: 4.5 h; library: site-saturation at positions 5, 18, 19, 20
Listed next: entries and their corresponding shrunken log2 fold change.
measuredMetric: shrunken log2 fold change

>>> recordedvalue("RRIRYRPPRLPRPRPRPLMLPRP")
-1.32
>>> recordedvalue("RRIRDRPPRLPRPRPRPRGYPRP")
0.03
>>> recordedvalue("RRIRWRPPRLPRPRPRPENHPRP")
-0.176
>>> recordedvalue("RRIRDRPPRLPRPRPRPNWDPRP")
0.0503
>>> recordedvalue("RRIRIRPPRLPRPRPRPKHDPRP")
-0.463
>>> recordedvalue("RRIRARPPRLPRPRPRPIWKPRP")
-0.0642
>>> recordedvalue("RRIRARPPRLPRPRPRPVPSPRP")
0.181
>>> recordedvalue("RRIRWRPPRLPRPRPRPVIKPRP")
-0.226
>>> recordedvalue("RRIRVRPPRLPRPRPRPMPWPRP")
0.056
>>> recordedvalue("RRIRVRPPRLPRPRPRPKMNPRP")
-0.262
>>> recordedvalue("RRIRDRPPRLPRPRPRPMVFPRP")
-0.0423
>>> recordedvalue("RRIRMRPPRLPRPRPRPFRKPRP")
-0.0166
>>> recordedvalue("RRIRVRPPRLPRPRPRPNPYPRP")
-0.376
>>> recordedvalue("RRIRIRPPRLPRPRPRPYDAPRP")
-1.48
>>> recordedvalue("RRIRMRPPRLPRPRPRPLWRPRP")
0.704
>>> recordedvalue("RRIRNRPPRLPRPRPRPDVMPRP")
-0.275
>>> recordedvalue("RRIRDRPPRLPRPRPRPWYPPRP")
-0.0798
>>> recordedvalue("RRIRFRPPRLPRPRPRPESPPRP")
0.00789
>>> recordedvalue("RRIRGRPPRLPRPRPRPISDPRP")
0.385
>>> recordedvalue("RRIRARPPRLPRPRPRPATFPRP")
0.129
>>> recordedvalue("RRIRGRPPRLPRPRPRPYAKPRP")
-0.0213
>>> recordedvalue("RRIRSRPPRLPRPRPRPLWCPRP")
0.148
>>> recordedvalue("RRIRTRPPRLPRPRPRPNERPRP")
-0.0561
>>> recordedvalue("RRIRWRPPRLPRPRPRPCSSPRP")
-0.259
>>> recordedvalue("RRIRDRPPRLPRPRPRPAPTPRP")
0.684
>>> recordedvalue("RRIRNRPPRLPRPRPRPTINPRP")
-0.515
>>> recordedvalue("RRIRQRPPRLPRPRPRPGDIPRP")
-0.0112
>>> recordedvalue("RRIRNRPPRLPRPRPRPKGFPRP")
-0.0324
>>> recordedvalue("RRIRLRPPRLPRPRPRPPSCPRP")
0.341

---

- System: Escherichia coli TOP10
- procedureDetails: shrunken log2 fold change of peptide-encoding DNA abundance (4.5 h post-induction vs induction); higher = less antimicrobial activity (less host growth inhibition)
- testContext: time post-induction: 4.5 h; library: site-saturation at positions 5, 18, 19, 20
Listed next: entries and their corresponding shrunken log2 fold change.
measuredMetric: shrunken log2 fold change

>>> recordedvalue("RRIRARPPRLPRPRPRPSPKPRP")
0.303
>>> recordedvalue("RRIRWRPPRLPRPRPRPCMAPRP")
0.312
>>> recordedvalue("RRIRWRPPRLPRPRPRPKSIPRP")
-0.017

---

- System: Escherichia coli TOP10;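 also: peptides expressed intracellularly from a pBAD plasmid library in pooled LB shake-flask culture, induced with 0.3% L-arabinose, DNA abundance read by NGS, three biological replicates, DESeq2 with apeglm shrinkage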
- procedureDetails: shrunken log2 fold change of peptide-encoding DNA abundance (4.5 h post-induction vs induction); higher = less antimicrobial activity (less host growth inhibition)
- testContext: time post-induction: 4.5 h; library: site-saturation at positions 5, 18, 19, 20
Using shrunken log2 fold change as the sorting value, the categories are bottom range: < -0.07; center range: ≥ -0.07 and < 0.1; top range: ≥ 0.1

>>> label("RRIRWRPPRLPRPRPRPDEFPRP")
"top range"
>>> label("RRIRIRPPRLPRPRPRPCSDPRP")
"center range"
>>> label("RRIRLRPPRLPRPRPRPHPAPRP")
"top range"
>>> label("RRIRFRPPRLPRPRPRPEWCPRP")
"center range"
>>> label("RRIRFRPPRLPRPRPRPAGRPRP")
"top range"
>>> label("RRIRYRPPRLPRPRPRPETCPRP")
"center range"
>>> label("RRIRCRPPRLPRPRPRPVDAPRP")
"top range"
>>> label("RRIRRRPPRLPRPRPRPCQWPRP")
"top range"
>>> label("RRIRSRPPRLPRPRPRPQREPRP")
"center range"
>>> label("RRIRSRPPRLPRPRPRPHRQPRP")
"top range"
>>> label("RRIRARPPRLPRPRPRPWHHPRP")
"bottom range"
>>> label("RRIRDRPPRLPRPRPRPQVGPRP")
"top range"
>>> label("RRIRTRPPRLPRPRPRPQAVPRP")
"bottom range"
>>> label("RRIRPRPPRLPRPRPRPGWVPRP")
"top range"
>>> label("RRIRFRPPRLPRPRPRPLFLPRP")
"bottom range"
>>> label("RRIRDRPPRLPRPRPRPDMVPRP")
"center range"
>>> label("RRIRMRPPRLPRPRPRPDISPRP")
"center range"
>>> label("RRIRQRPPRLPRPRPRPWNCPRP")
"center range"
>>> label("RRIRSRPPRLPRPRPRPTLVPRP")
"top range"
>>> label("RRIRNRPPRLPRPRPRPTWWPRP")
"top range"
>>> label("RRIRTRPPRLPRPRPRPLVDPRP")
"bottom range"
>>> label("RRIRFRPPRLPRPRPRPLCEPRP")
"bottom range"
>>> label("RRIRYRPPRLPRPRPRPINDPRP")
"bottom range"
>>> label("RRIRQRPPRLPRPRPRPAKHPRP")
"top range"
>>> label("RRIRYRPPRLPRPRPRPVVTPRP")
"bottom range"
>>> label("RRIRDRPPRLPRPRPRPSIPPRP")
"bottom range"
>>> label("RRIRGRPPRLPRPRPRPLWHPRP")
"top range"
>>> label("RRIRMRPPRLPRPRPRPFGGPRP")
"top range"
>>> label("RRIRFRPPRLPRPRPRPVYGPRP")
"bottom range"
>>> label("RRIRPRPPRLPRPRPRPKIYPRP")
"center range"
>>> label("RRIRCRPPRLPRPRPRPCTCPRP")
"bottom range"
>>> label("RRIRSRPPRLPRPRPRPILFPRP")
"bottom range"
>>> label("RRIRDRPPRLPRPRPRPMMTPRP")
"top range"
